# SYSTEM TESTED: PfPanK1 (Plasmodium falciparum, UniProt Q8ILP4)
# Sequence (Q8ILP4 1-519): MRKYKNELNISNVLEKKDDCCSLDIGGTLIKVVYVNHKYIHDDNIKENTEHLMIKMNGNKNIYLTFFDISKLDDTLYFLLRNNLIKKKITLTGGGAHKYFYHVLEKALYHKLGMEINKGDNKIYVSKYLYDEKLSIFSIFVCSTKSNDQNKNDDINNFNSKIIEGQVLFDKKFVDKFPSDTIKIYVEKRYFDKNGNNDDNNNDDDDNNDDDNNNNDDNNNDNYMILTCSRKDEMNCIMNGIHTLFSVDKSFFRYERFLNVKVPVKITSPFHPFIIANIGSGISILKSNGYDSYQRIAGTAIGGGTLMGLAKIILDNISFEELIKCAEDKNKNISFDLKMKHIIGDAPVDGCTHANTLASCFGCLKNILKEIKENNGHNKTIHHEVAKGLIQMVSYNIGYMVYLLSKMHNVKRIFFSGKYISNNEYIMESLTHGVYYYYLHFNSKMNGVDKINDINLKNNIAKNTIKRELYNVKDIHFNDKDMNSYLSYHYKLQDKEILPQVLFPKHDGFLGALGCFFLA
# Assay type: biochemical
# DETAILS: pH 8.4
Labelling: Relative activity (%) Pantothenate reported below 40% becomes 1 (yes); at or above becomes 0 (no).

Example entries begin here.
SMILES REPRESENTATION: [Cl-].[Na+]
ASSIGNED LABEL: 0 (no)
//
SMILES REPRESENTATION: Nc1ncnc2c1ncn2[C@@H]1O[C@H](COP(=O)(O)OP(=O)(O)OP(=O)(O)O)[C@@H](O)[C@H]1O
ASSIGNED LABEL: 0 (no)
//
SMILES REPRESENTATION: Cc1cn([C@H]2C[C@H](O)[C@@H](COP(=O)(O)OP(=O)(O)OP(=O)(O)O)O2)c(=O)[nH]c1=O
ASSIGNED LABEL: 1 (yes)
//
SMILES REPRESENTATION: O=c1ccn([C@@H]2O[C@H](COP(=O)(O)OP(=O)(O)OP(=O)(O)O)[C@@H](O)[C@H]2O)c(=O)[nH]1
ASSIGNED LABEL: 0 (no)
//
SMILES REPRESENTATION: Nc1ccn([C@@H]2O[C@H](COP(=O)(O)OP(=O)(O)OP(=O)(O)O)[C@@H](O)[C@H]2O)c(=O)n1
ASSIGNED LABEL: 1 (yes)

Quick check: Relative activity (%) Pantothenate of Nc1ncnc2c1ncn2[C@H]1C[C@H](O)[C@@H](COP(=O)(O)OP(=O)(O)OP(=O)(O)O)O1 under 40%?
1 (yes)

Field entry: Nc1nc2c(ncn2[C@@H]2O[C@H](COP(=O)(O)OP(=O)(O)OP(=O)(O)O)[C@@H](O)[C@H]2O)c(=O)[nH]1
0 (no)

* * *

# Test system: Plasmodium falciparum sensitive strain 3D7
# ASSAY COMMENT: P. falciparum asexual blood stage growth, diaphorase-coupled LDH assay
# Type: cell-based
# DETAILS: 3D7, 72 h incubation, mean ± SEM, read-out: IC50 P. falciparum erythrocytic stages
MEASURED PROPERTY: pIC50
Answers are plain numbers, as −log10 of the molar value.

Quick check: pIC50 of OC[C@H]1O[C@@H](Oc2ccc(/C=C/c3cc(O)c4c(c3)O[C@H](c3ccc(O)cc3)[C@H]4c3cc(O)cc(O)c3)cc2)[C@H](O)[C@@H](O)[C@@H]1O [Gnemonoside D] ?
5.72

* * *

# SYSTEM TESTED: PfPanK1 (Plasmodium falciparum, UniProt Q8ILP4)
# ASSAY COMMENT: Screening of natural compounds for PfPanK inhibitors and IC50 determination (recombinant enzyme, ADP Hunter Plus)
# Type: biochemical
# DETAILS: primary screening; 37°C, 2 h
Tag: satisfied if measured inhibition is not below 50%, not satisfied if it is.

Examples from the recorded data:
COMPOUND: OC[C@H]1O[C@@H](Oc2ccc(/C=C/c3cc(O)c4c(c3)O[C@H](c3ccc(O)cc3)[C@H]4c3cc(O)cc(O)c3)cc2)[C@H](O)[C@@H](O)[C@@H]1O [Gnemonoside D]
ASSIGNED LABEL: satisfied
//
COMPOUND: CC(=O)Oc1cccc2c(=O)c3c4c(c(=[N+]=[N-])c=3c(=O)c12)C(OC(C)=O)C(C)(OC(C)=O)C(OC(C)=O)C4OC(C)=O (centres unmarked) [Diacetylkinamycin C]
ASSIGNED LABEL: satisfied
//
COMPOUND: CC(/C=C/C(=O)NO)=C\[C@@H](C)C(=O)c1ccc(N(C)C)cc1 [Trichostatin]
ASSIGNED LABEL: not satisfied
//
COMPOUND: C=C/C(C)=C/[C@@]1(C)SC(=O)C(C)=C1O [Thiolactomycin]
ASSIGNED LABEL: not satisfied

Now let's try a different one.
Reported inhibition reaches at least 50% for CC1(C)S[C@@H]2[C@H](NC(=O)[C@H](N)c3ccc(O)cc3)C(=O)N2[C@H]1C(=O)O [Amoxicillin] ?
not satisfied
